Source of measurements: patent US9115093B2

Entries and their IC50
testSystem: neutrophil elastase (Homo sapiens, UniProt P08246)
Sequence (P08246 30-247 limits assumed): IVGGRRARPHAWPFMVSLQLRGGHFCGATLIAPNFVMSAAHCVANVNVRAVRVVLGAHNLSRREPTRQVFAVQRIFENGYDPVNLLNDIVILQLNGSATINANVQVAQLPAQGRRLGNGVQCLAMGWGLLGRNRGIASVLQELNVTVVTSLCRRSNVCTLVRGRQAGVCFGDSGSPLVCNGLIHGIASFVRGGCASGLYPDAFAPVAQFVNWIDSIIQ
protocolText: Human Neutrophil Elastase Assay
appliedConditions: substrate MeOSuc-Ala-Ala-Pro-Val-AMC, pH 7.5, room temperature
I only need the number, in nM, no unit after it.

# count of solved cases: 4
| compound | displayUnit | val |
| --- | --- | --- |
| N#Cc1ccc(C2C3=C(CCCC3=O)N(c3cccc(C(F)(F)F)c3)C(=O)N2CC(=O)NCCN2CCOCC2)cc1 (centres unmarked) [Example 36.63] | nM | 13.9 |
| COCCNC(=O)CN1C(=O)N(c2cccc(C(F)(F)F)c2)C2=C(C(=O)CCC2)C1c1ccc(C#N)cc1 (centres unmarked) [Example 36.5] | nM | 13.5 |
| N#Cc1ccc(C2C3=C(CCCC3=O)N(c3cccc(C(F)(F)F)c3)C(=O)N2C(=O)NCC2(O)CC2)cc1 (centres unmarked) [Example 70.7] | nM | 1.4 |
| N#Cc1ccc(C2NC(=O)N(c3cccc(C(F)(F)F)c3)C3=C2C(=O)CCC3)cn1 (centres unmarked) [Example 16] | nM | 54.1 |

Please find the next compound below.
// IC50 lookup, key: CCS(=O)(=O)N1C(=O)N(c2cccc(C(F)(F)F)c2)C2=C(C(=O)CCC2)C1c1ccc(C#N)cc1 (centres unmarked) [Example 44.1] 5.1
